Field: cell viability. Provide a value for each of the compounds that follow.
- Tested on: MOLM14;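 also: after 48 h exposure read by CellTiter-Glo luminescence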
- PROTOCOL DETAILS: cell viability relative to vehicle control; higher = less cytotoxic
- ASSAY SETUP: 10 µM; SRSF2 genotype: SRSF2 P95H/wt
Numbers only, in %.

// known answers, use as guide
COMPOUND	cell viability (%)
CN1CCN(c2nc(C3=C(c4c[nH]c5ccccc45)C(=O)NC3=O)c3ccccc3n2)CC1	30.8
CCCC1O[C@@H]2C[C@H]3[C@@H]4CCC5=CC(=O)C=C[C@]5(C)[C@H]4[C@@H](O)C[C@]3(C)[C@]2(C(=O)CO)O1 (stereo partly drawn) [Budesonide]	86.1
Cc1cn([C@H]2O[C@@H](CO)[C@H](O)[C@H]2F)c(=O)[nH]c1=O	101
CCCCCCOC(=O)c1cc(=O)c(O)c2c(O)c(O)c(OC)cc2c1	61.5
COc1cc(N2CCC(N(C)C)CC2)ccc1Nc1ncc(Cl)c(Nc2ccccc2P(C)(C)=O)n1	1.15

For each listed entry, give its cell viability.
1. O=C(Nc1ccc(S(=O)(=O)Nc2ccccc2Cl)c(Cl)c1)c1ccccn1
2. Cn1cnc(=N)c2[nH]cnc21
3. CC(C)(C)c1nc(-c2ccc(NC(=O)Nc3cccc(C(F)(F)F)c3)c3ccccc23)c2c(N)nccn12

*A*
[97.6, 88, 1.58]
